# Tested on: Vero E6 infected with SARS-CoV-2
# assay.details: SARS-CoV-2 infection rate relative to infected DMSO; higher = more infection, active = 60 or less
# reported.conditions: 24 h

compound	SARS-CoV-2 infection rate (%)
Cc1c(N(C)C)c(=O)n(-c2ccccc2)n1C [amidopyrine] (10 µM)	110
CC(=O)OCC(=O)[C@@]12N=C(C)O[C@@H]1C[C@H]1[C@@H]3CCC4=CC(=O)C=C[C@]4(C)[C@H]3[C@@H](O)C[C@@]12C [Deflazacort (Calcort)] (10 µM)	97.5
O=C(CN1C2=NCCN2c2ccccc21)c1ccc(-c2ccccc2)cc1 (10 µM)	35
CCCC(C)(COC(N)=O)COC(=O)NC(C)C (stereo unspecified) (10 µM)	116
CC(C)C(=O)SCCCCC[C@H](NC(=O)OC(C)(C)C)C(=O)NC12CC3CC(CC(C3)C1)C2 (10 µM)	97
CCOC(=O)[C@H](CCc1ccccc1)N[C@H]1CCc2ccccc2N(CC(=O)O)C1=O [benazepril] (10 µM)	90.5
CC[C@@]1([C@H]2O[C@H]([C@H]3O[C@@](O)(CO)[C@H](C)C[C@@H]3C)C[C@H]2C)CC[C@H]([C@@]2(C)CC[C@]3(C[C@H](O)[C@@H](C)[C@@H]([C@H](C)[C@H](OC)[C@@H](C)C(=O)O)O3)O2)O1 (10 µM)	39
COc1cc2c(cc1OC)[C@@]13CCN4CC5=CCO[C@H]6CC(=O)N2[C@H]1[C@H]6[C@H]5C[C@H]43 [brucine] (10 µM)	105
CC(OC(=O)OC1CCCCC1)OC(=O)C1=C(CSc2nnnn2CCN(C)C)CS[C@@H]2[C@H](NC(=O)Cc3csc(N)n3)C(=O)N12 (stereo partly specified) [cefotiam-cilexetil] (10 µM)	109
O=C1CC2(CCCC2)CC(=O)N1CCCCNC[C@H]1COc2ccccc2O1 (racemic) (10 µM)	108
N[C@H]1CCN(O)C1=O (10 µM)	99.2
Nc1nc(=O)c(Br)c(-c2ccccc2)[nH]1 [bropirimine] (10 µM)	99.5
C[C@H](Oc1ccc(S(C)(=O)=O)cc1C(=O)N1CCN(c2ncc(C(F)(F)F)cc2F)CC1)C(F)(F)F [bitopertin] (10 µM)	108
CC(COc1ccccc1Cc1ccccc1)N1CCCCC1 (stereo unspecified) [benproperine] (10 µM)	79
Cc1ncc([N+](=O)[O-])n1CCO [metronidazole] (10 µM)	118
CC(=O)Nc1nc2c(Oc3cc(-c4ccc(C(F)(F)F)cc4)ncn3)cccc2s1 (10 µM)	108
O[C@@H](COc1cccc2ncccc12)CN1CCN([C@@H]2c3ccccc3[C@@H]3[C@H](c4ccccc42)C3(F)F)CC1 [zosuquidar] (0.833333 µM)	108
C#CCN(C)[C@H](C)Cc1ccccc1 [selegiline] (10 µM)	105
CC1CC(OC(=O)C(O)c2ccccc2)CC(C)(C)C1 (stereo unspecified) [cyclandelate] (10 µM)	98
CNc1cc2c(Nc3cccc(Br)c3)ncnc2cn1 (10 µM)	112
COc1cc(Cc2cnc(N)nc2N)cc(OC)c1OC [trimethoprim] (10 µM)	98.5
O=C(O)c1cc(=O)[nH]c(=O)[nH]1 [orotic-acid] (10 µM)	104
CCOC(=O)Nc1ccc(NCc2ccc(F)cc2)cc1N [Retigabine] (10 µM)	106
Cc1cc(NC(=O)NCCN2CCC(O)(Cc3ccccc3)CC2)c2ccccc2n1 [palosuran] (10 µM)	112
CO[C@@H]1[C@H](N(C)C(=O)c2ccccc2)C[C@H]2O[C@]1(C)n1c3ccccc3c3c4c(c5c6ccccc6n2c5c31)C(=O)NC4 [midostaurin] (10 µM)	110
COc1cc(-n2c(=S)[nH]c3ccccc3c2=O)c(Cl)cc1Cl [mdivi-1] (10 µM)	112
CC(=O)N(C)c1cc(-c2ccnc3c(C(=O)c4cccs4)cnn23)ccc1F [lorediplon] (10 µM)	112
C[N+](C)(CCOc1ccccc1)Cc1ccccc1 [bephenium-hydroxynaphthoate] (10 µM)	94.5
CO/N=C(\C(=O)N[C@@H]1C(=O)N2C(C(=O)OCOC(=O)C(C)(C)C)=C(/C=C\c3scnc3C)CS[C@H]12)c1csc(N)n1 [cefditoren-pivoxil] (10 µM)	99.5
COc1ccc2c(c1)C(=O)N(CCc1ccc(S(=O)(=O)NC(=O)NC3CCCCC3)cc1)C(=O)C2(C)C [gliquidone] (10 µM)	98.5
CC(CNC(=O)c1cccnc1)NC(=O)c1cccnc1 (stereo unspecified) [nicaraven] (10 µM)	114
